- Test system: CP265
- TEST SUMMARY: qHTS profiling for inhibitors of Plasmodium falciparum proliferation (AID 504749);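 also: 0% = DMSO vehicle and full inhibition = artemisinin control; nearly all actives have a fitted effect of over 60% in size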
- APPLIED CONDITIONS: P. falciparum in erythrocytes, SYBR Green DNA, 72 h; series mostly up to 28.7 µM
- Experimental: NIH National Institute of Allergy and Infectious Diseases [NIAID] NIH Chemical Genomics Center [NCGC] […] Because mature erythrocytes lack DNA, only Plasmodium-derived DNA is detected. NCGC Assay Protocol Summary: The SYBR Green viability assay was adapted from a method described previously (Plouffe et al., 2008). […] The following morning, fluorescence intensity at 485(14) nm excitation and 535(25) nm emission wavelengths was measured on an EnVision (Perkin Elmer) plate reader. […]
Results filed as inconclusive are left out. Active and inactive are the calls of the source. Calls follow the shape of the dose curve; as a rule, active = well fitted inhibition curve with a large enough effect; inconclusive = small, poorly fitted or top-dose-only effect; inactive = flat fitted curve, though single readings scatter.
The categories you may choose from are Y for active, N for inactive

What did the test return for CCOC(=O)O[C@]1(C(=O)OCCl)CC[C@@H]2[C@H]3CCC4=CC(=O)C=C[C@]4(C)[C@@H]3[C@@H](O)C[C@@]21C ?
N

* * *

- TEST SUMMARY: qHTS drug screen for cell cycle checkpoint inhibitors in PARPi-resistant BRCA-mutant ovarian cancer cell lines. (AID 1963452)
- APPLIED CONDITIONS: PEO1/OlaR viability, CellTiter-Glo luminescence, 96 h; hits give low values
MEASUREMENT NAME: Z-AUC
Answer with a number only.

{"columns": ["COMPOUND", "Z-AUC"],
 "data": [
  ["CN[C@@H](C)C(=O)N[C@H]1CN(C(=O)CC(C)C)CC[C@H]2CC[C@@H](C(=O)NC(c3ccccc3)c3ccccc3)N2C1=O", 0.77]
]}

Please look up its Z-AUC: NC(=O)c1cnc(-c2ccc(C3(N)CCC3)cc2)c(-c2ccccc2)c1
0.0998

Please look up its Z-AUC: O=C(N[C@@H](c1ccccc1)[C@@H]1CCCCN1)c1cccc(C(F)(F)F)c1Cl
0.7

* * *

- TEST SUMMARY: Cytometry Cell-Based qHTS for Inhibitors of the mTORC1 Signaling Pathway in MEF cells (AID 2668)
- APPLIED CONDITIONS: mTORC1 pathway readout; series mostly up to 38.3 µM
Inconclusive results are not listed. The source made the active and inactive calls. Calls come from the whole dose curve; as a rule, active = well fitted inhibition curve with a large enough effect; inconclusive = small, poorly fitted or top-dose-only effect; inactive = flat fitted curve, though single readings scatter.
The categories you may choose from are T (active), F (inactive)

Reference set, count: 6
{"columns": ["COMPOUND", "ANSWER LABEL"],
 "data": [
  ["CC(C)(C)c1ccc(C(O)CCCN2CCC(C(O)(c3ccccc3)c3ccccc3)CC2)cc1 (configuration not stated)", "T"],
  ["CCN(CC)C(=O)c1ccc(O)c(OC)c1", "F"],
  ["C[N+](C)(C)CCCCCC[N+](C)(C)C", "F"],
  ["NC(N)=Nc1nc(CSCC/C(N)=N/S(N)(=O)=O)cs1", "F"],
  ["CC(=O)c1ccc(S(=O)(=O)NC(=O)NC2CCCCC2)cc1", "F"],
  ["CC(=O)O[C@]1(C(C)=O)CC[C@H]2[C@@H]3C=C(Cl)C4=CC(=O)[C@@H]5C[C@@H]5[C@]4(C)[C@H]3CC[C@@]21C", "F"]
]}

Now look at this one.
What did the test return for CCCCC1C(=O)N(c2ccccc2)N(c2ccccc2)C1=O ?
F

* * *

- TEST SUMMARY: Cell Viability - LYMP2-015 (AID 971);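 also: cells exposed to compound for 24 h; nearly all actives have a fitted effect of over 55% in size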
- APPLIED CONDITIONS: LYMP2-015 lymphoblastoid cell viability; series mostly up to 92.2 µM
Results filed as inconclusive are left out. Active and inactive are the calls of the source. The call rests on the fitted dose curve; in most records, active means well fitted cell-killing curve with a large enough effect; inconclusive means small, poorly fitted or top-dose-only effect; inactive means flat fitted curve, though single readings scatter.
The categories you may choose from are yes = active, no = inactive

Reference set, count: 5
{"columns": ["COMPOUND", "ANSWER LABEL"],
 "data": [
  ["O=C(O)c1cc(O)c2c(c1)C(=O)c1cccc(O)c1C2=O", "yes"],
  ["O=c1[nH]cnc2c1ncn2[C@H]1CC[C@@H](CO)O1", "no"],
  ["O=c1c(-c2ccc(O)cc2)coc2cc(O)ccc12", "no"],
  ["CCn1cc(C(=O)O)c(=O)c2ccc(C)nc21", "no"],
  ["CN(C)CCC(c1ccccc1)c1ccccn1 (stereo not drawn)", "no"]
]}

What did the test return for CC(=O)c1ccc(S(=O)(=O)NC(=O)NC2CCCCC2)cc1 ?
no

What did the test return for O=c1c(O)c(-c2ccc(O)cc2)oc2cc(O)cc(O)c12 ?
no

What did the test return for CCCNC(=O)NS(=O)(=O)c1ccc(Cl)cc1 ?
no

* * *

- Tested on: NIH3T3
- TEST SUMMARY: Cytotoxic Profiling of Annotated Libraries Using Quantitative High-Throughput Screening (AID 1296008); also: nearly all actives have a fitted effect of over 60% in size
- APPLIED CONDITIONS: Five cell lines viability, CellTiter-Glo ATP luminescence, 48-72 h
Inconclusive results are not listed. The source made the active and inactive calls. Calls come from the whole dose curve; as a rule, active = well fitted inhibition curve with a large enough effect; inconclusive = small, poorly fitted or top-dose-only effect; inactive = flat fitted curve, though single readings scatter.
The categories you may choose from are class 1 (active), class 0 (inactive)

Reference set, count: 3
{"columns": ["COMPOUND", "TARGET DESC", "ANSWER LABEL"],
 "data": [
  ["CCc1ccc(OCc2ccccc2C(=O)Nc2ccc3nc(C)cc(N)c3c2)cc1", "NIH3T3", "class 1"],
  ["O=C(Nc1ccccc1-c1cn2c(CN3CCNCC3)csc2n1)c1cnc2ccccc2n1", "NIH3T3", "class 1"],
  ["CCOC1OC(=O)C[C@H]1NC(=O)[C@@H]1CCCN1C(=O)[C@@H](NC(=O)c1ccc(N)c(Cl)c1)C(C)(C)C (stereo partly specified)", "NIH3T3", "class 0"]
]}

What did the test return for OC[C@H]1O[C@@H](n2cnc3c2NC=NC[C@@H]3O)C[C@H]1O ?
class 0

What did the test return for CC(=NNC(=S)N1CCC1)c1ccccn1 ?
class 1

What did the test return for COc1cc(Nc2ncc(F)c(Nc3ccc4c(n3)NC(=O)C(C)(C)O4)n2)cc(OC)c1OC ?
class 1

What did the test return for O=c1cc(-c2cccc3c2Sc2ccccc2S3)oc(N2CCOCC2)c1 ?
class 0

What did the test return for CC#CCn1c(N2CCC[C@@H](N)C2)nc2c1c(=O)n(Cc1nc(C)c3ccccc3n1)c(=O)n2C ?
class 0

What did the test return for CC(C)(C(=O)NCC(F)(F)C(F)(F)F)C(=O)N[C@@H]1C(=O)Nc2ccccc2-c2ccccc21 ?
class 0

What did the test return for NC(N)=Nc1nc(CSCC/C(N)=N/S(N)(=O)=O)cs1 ?
class 0

* * *

- TEST SUMMARY: qHTS of pediatric cancer cell lines to identify multiple opportunities for drug repurposing: Primary screen for NB1643 cells (AID 1347099); also: nearly all actives have a fitted effect of over 50% in size
- APPLIED CONDITIONS: NB1643 neuroblastoma viability, CellTiter-Glo luminescence, 48 h; series mostly up to 46 µM
Records with an inconclusive call do not appear. The source made the active and inactive calls. The call rests on the fitted dose curve; in most records, active means well fitted cell-killing curve with a large enough effect; inconclusive means small, poorly fitted or top-dose-only effect; inactive means no such curve, though single readings can be large or run the other way.
The categories you may choose from are 1 = active, 0 = inactive

{"columns": ["COMPOUND", "ANSWER LABEL"],
 "data": [
  ["Nc1ncnc2c1ncn2[C@@H]1O[C@@H](CO)[C@H](O)[C@H]1O", 0],
  ["C[C@H]1[C@H](NC(=O)C(=NOC(C)(C)C(=O)O)c2csc(N)n2)C(=O)N1S(=O)(=O)O", 0],
  ["CC(C)NCC(O)COc1cccc2[nH]ccc12 (stereo not given)", 0],
  ["CC(C(=O)O)c1ccc(-c2ccccc2)c(F)c1 (stereo not given)", 1]
]}

What did the test return for O=c1cc(CN2CCOCC2)occ1OCCCCCSc1ccnc2cc(C(F)(F)F)ccc12 ?
0

* * *

- TEST SUMMARY: Quantitative High-Throughput drug screen in 47 multiple myeloma cell lines against the NCATS MIPE library collection: JJN3_DSMZ cell viability assay (AID 1918966; also: nearly all actives have a fitted effect of over 50% in size)
- APPLIED CONDITIONS: JJN3 myeloma cells viability, CellTiter-Glo ATP, 48 h; series mostly up to 45.8 µM
Records with an inconclusive call do not appear. Activity calls are given as the source filed them. Calls come from the whole dose curve; as a rule, active = well fitted cell-killing curve with a large enough effect; inconclusive = small, poorly fitted or top-dose-only effect, or effect the other way; inactive = no such curve, though single readings can be large or run the other way.
The categories you may choose from are yes (1) = active, no (0) = inactive

{"columns": ["COMPOUND", "ANSWER LABEL"],
 "data": [
  ["NC[C@@H]1O[C@@H](O[C@H]2[C@@H](O)[C@H](O[C@@H]3[C@@H](O)[C@@H](N)C[C@H](N)[C@H]3O[C@H]3O[C@H](CN)[C@@H](O)[C@@H](O)[C@H]3N)O[C@H]2CO)[C@H](N)[C@@H](O)[C@@H]1O", "no (0)"]
]}

What did the test return for Clc1ccc(-c2nc3sccn3c2C=NOCc2ccc(Cl)c(Cl)c2)cc1 ?
no (0)

What did the test return for COc1ccc(C2Sc3ccccc3N(CCN(C)C)C(=O)C2OC(C)=O)cc1 (stereo unspecified) ?
no (0)

What did the test return for CCc1ccc(OCc2ccccc2C(=O)Nc2ccc3nc(C)cc(N)c3c2)cc1 ?
yes (1)

* * *

- TEST SUMMARY: qHTS assay to identify small molecule inhibitors of chordoma cells - UCH-1 (AID 1259355); also: nearly all actives have a fitted effect of over 55% in size
- APPLIED CONDITIONS: UCH-1 chordoma viability, CellTiter-Glo, 48 h, combination, with auranofin plus four topoisomerase inhibitors; series mostly up to 46.1 µM
Results filed as inconclusive are left out. Activity calls are given as the source filed them. The call rests on the fitted dose curve; in most records, active means well fitted cell-killing curve with a large enough effect; inconclusive means small, poorly fitted or top-dose-only effect, or effect the other way; inactive means no such curve, though single readings can be large or run the other way.
MEASUREMENT NAME: outcome

{"columns": ["MOLECULE", "outcome"],
 "data": [
  ["CCN(CC)CCNC(=O)c1ccc(N)cc1", "inactive"],
  ["CCCCC1C(=O)N(c2ccccc2)N(c2ccccc2)C1=O", "inactive"],
  ["O=C1NC(=O)C(c2ccccc2)(c2ccccc2)N1", "inactive"],
  ["O=C(O)Cc1cccc2ccccc12", "inactive"],
  ["CCCNC(=O)NS(=O)(=O)c1ccc(Cl)cc1", "inactive"],
  ["Cc1cnc(C(=O)O)c[n+]1[O-]", "inactive"],
  ["CC(=O)c1ccc(S(=O)(=O)NC(=O)NC2CCCCC2)cc1", "inactive"],
  ["CN(C)CCC(c1ccccc1)c1ccccn1 (stereo not given)", "inactive"]
]}

Please look up its outcome: CC(=O)O[C@]1(C(C)=O)CC[C@H]2[C@@H]3C=C(Cl)C4=CC(=O)[C@@H]5C[C@@H]5[C@]4(C)[C@H]3CC[C@@]21C
inactive

Please look up its outcome: O=C(NCCN1CCOCC1)c1ccc(Cl)cc1
inactive

Please look up its outcome: COc1ccccc1N1CCN(CCCNc2cc(=O)n(C)c(=O)n2C)CC1
inactive

Please look up its outcome: O=C1NCC2(CCN(CCc3ccccc3)CC2)O1
inactive

Please look up its outcome: O=C(O)c1cc(-c2ccccc2)nc2ccccc12
inactive

Please look up its outcome: NCCS
inactive

Please look up its outcome: C[C@@H](O)[C@H]1C(=O)N2C(C(=O)O)=C(S[C@@H]3CN[C@H](C(=O)N(C)C)C3)[C@H](C)[C@H]12
inactive
